assay: in vivo; parameters: species or system Sprague Dawley rats; conditions: male, Sprague-Dawley, rat, 1 mg/kg

cpdSmiles | bioavailability (%)
C[C@@H](O)[C@H]1C(=O)N2C(C(=O)O)=C(S[C@@H]3CN[C@H](C(=O)N(C)C)C3)[C@H](C)[C@H]12 | 58
